Entry source: the supplement of paper PMC9170038

# Tested on: MS2 coat protein
# Test protocol: apparent KD of MS2 coat protein; higher = weaker reporter binding
# Applied conditions: Eterna round: R101; input ligand: FMN 200 uM
Measured quantity: apparent KD of MS2 coat protein (nM)
Entry rule: numbers only, all in nM.

Some sequences with known apparent KD of MS2 coat protein results, for comparison:
- Sequence string: "AAAGAUUUUCAAGGAUAUCAGUGGCAAAGCCACUGAGAAGGUGAGGAUCACCCACCUACGUGACGCUGGAAACAGCGUCACGAA [#SharedSequence ExNG1 - 26] (puzzle (switch architecture): Exclusion NG 1)"
  apparent KD of MS2 coat protein [nM]: 64.5
- Sequence string: "UUAUAAUUAAGAGGAUAUAUACAACAUGAGGAUCACCCAUGUACCCAUGUAGUAGAAGGCUUAUUUUUAUAUAAUAAUAUAAUU [AstrosLoopssng1#9] (puzzle (switch architecture): Small Loop Same State NG 1)"
  apparent KD of MS2 coat protein [nM]: 40
- Sequence string: "CAAUUGGCACAGAAGGGUGACAUGAGGAUCACCCAUGUAGCGUGGCAUUCAGGAAGAGCCACGCCACAGGAUAUGUGCGGGCAC [Rigeri] (puzzle (switch architecture): Inverted Same State NG 2)"
  apparent KD of MS2 coat protein [nM]: 31.9

State its apparent KD of MS2 coat protein on MS2 coat protein: AGACCUGCUCAGAAGGCGUGUGCGAGGCUGGAAACAGCCUCGAAUUAAAAUCUUCGAGGAUCACCCGAGGAUAUGAGCAGGUCA [#SharedSequence - IExNG2: 20] (puzzle (switch architecture): Inverted Exclusion NG 2)
59.7
